Target: human NK1 receptor (Homo sapiens)
Construct: expressed in transfected cells; host or cells: CHO cells infected using the Semliki virus expression system; membrane suspension
Sequence (P25103 whole entry): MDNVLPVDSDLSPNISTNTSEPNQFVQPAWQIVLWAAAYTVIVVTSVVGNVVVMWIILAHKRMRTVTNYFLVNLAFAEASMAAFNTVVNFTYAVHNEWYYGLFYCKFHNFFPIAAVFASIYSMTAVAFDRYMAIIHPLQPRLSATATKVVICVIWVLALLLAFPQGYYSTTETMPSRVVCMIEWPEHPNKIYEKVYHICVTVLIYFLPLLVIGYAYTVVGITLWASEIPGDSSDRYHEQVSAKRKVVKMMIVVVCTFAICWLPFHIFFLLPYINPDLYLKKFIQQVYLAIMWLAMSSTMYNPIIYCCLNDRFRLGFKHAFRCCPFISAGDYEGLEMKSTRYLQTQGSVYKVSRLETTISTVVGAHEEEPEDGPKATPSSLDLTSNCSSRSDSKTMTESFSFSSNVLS
Assay: NK1 receptor binding assay, displacement of [3H]substance P
Conditions: human NK1 receptors in CHO cells (Semliki virus expression system), [3H]substance P 0.6 nM, 60 min at room temperature; read-out: affinity to the NK-1 receptor, given as pKi (converted)
Parameter measured: Ki (nM)
I only need the number, in nM, no unit after it.

For orientation, consider the following solved cases.
> print(dat)
                                   compound  meas.value
1  CN(Cc1cc(C(F)(F)F)cc(C(F)(F)F)c1)C(=O)c1cnc(N2CCOCC2)cc1Oc1ccccc1Cl [Example 29]        1.74
2  CN(Cc1cc(C(F)(F)F)cc(C(F)(F)F)c1)C(=O)c1cnc(N2CCOCC2)cc1Oc1ccccc1 [Example 28]        13.8
3  CN1CCN(c2cc(Oc3ccccc3Cl)c(C(=O)N(C)Cc3cc(C(F)(F)F)cc(C(F)(F)F)c3)cn2)CC1 [Example 30]         3.8

Kindly review the next compound as well.
Ask: # query: Ki | item Cc1ccccc1Oc1cc(N2CCOCC2)ncc1C(=O)N(C)Cc1cc(C(F)(F)F)cc(C(F)(F)F)c1 [Example 31] | system: human NK1 receptor (Homo sapiens)
Reply: 2.75
